- experimental.system: cloned human dopamine D3 receptors (Homo sapiens)
- Construct: expressed in transfected cells; membrane homogenate
- measurement.notes: [N-Methyl-3H]Spiroperidol binding to cloned human dopamine D3 receptors (Protocol 1)
- experimental.parameters: Table 2; read-out: D3K1
measured.property: pKi
Schema: pKi number; meaning minus log10 of the concentration expressed in molar units.

Worked examples follow.
Query: Quick one: give measured pKi for "O=C(NC/C=C/CN1CCN(c2csc3cc(C(F)(F)F)ccc23)CC1)C1(c2ccccc2)CC1"
Reply: 6.40

Query: Output measured pKi for this item: "CC(C)(C)OC(=O)Cn1c(C(=O)NCCCCN2CCCN(c3csc4cc(F)ccc34)CC2)cc2ccccc21"
Reply: 6.49

Query: Supply pKi value. Item: "O=C(NCCCN1CCCN(c2csc3cc(F)ccc23)CC1)c1ccc2ccccc2c1"
Reply: 6.88

Query: For O=C(NCC(CO)CCN1CCN(c2csc3cc(C(F)(F)F)ccc23)CC1)c1ccncc1 (stereo not shown) [818940ES] , write its pKi.
Reply: 6.51

***
Query: Return reported pKi. Input compound: "CN(C)c1cccc(C(=O)NCCCCN2CCCN(c3csc4cc(F)ccc34)CC2)c1"
Reply: 8.15

Query: Note pKi for the compound shown: "O=C(NCCCCN1CCN(c2c(-c3ccccc3)sc3cc(F)ccc23)CC1)c1ccc(Cl)cc1"
Reply: 6.08

Query: Please look at this compound and report its pKi: O=C(NC(CO)CCCN1CCN(c2csc3cc(C(F)(F)F)ccc23)CC1)c1cc2ccc(Cl)cc2s1 (stereo not shown)
Reply: 6.56

Query: Annotate the compound "CC(C)(C)c1cc(C(C)(C)C)c2oc(C(=O)NCCCCN3CCCN(c4csc5cc(F)ccc45)CC3)cc2c1" with its measured pKi.
Reply: 6.89

Query: Give the value of pKi reported for the following: "O=C(NCCCCN1CCCN(c2csc3cc(F)ccc23)CC1)c1cc2cccc(F)c2o1"
Reply: 7.48

Query: Using the record for "COc1cc(OC)cc(C(=O)NCCCN2CCCN(c3csc4cc(F)ccc34)CC2)c1" , state its measured pKi.
Reply: 6.57

====

- experimental.system: cloned human dopamine D3 receptors (Homo sapiens, UniProt P35462)
- Construct: expressed in transfected cells; membrane homogenate
- Sequence (P35462 whole entry): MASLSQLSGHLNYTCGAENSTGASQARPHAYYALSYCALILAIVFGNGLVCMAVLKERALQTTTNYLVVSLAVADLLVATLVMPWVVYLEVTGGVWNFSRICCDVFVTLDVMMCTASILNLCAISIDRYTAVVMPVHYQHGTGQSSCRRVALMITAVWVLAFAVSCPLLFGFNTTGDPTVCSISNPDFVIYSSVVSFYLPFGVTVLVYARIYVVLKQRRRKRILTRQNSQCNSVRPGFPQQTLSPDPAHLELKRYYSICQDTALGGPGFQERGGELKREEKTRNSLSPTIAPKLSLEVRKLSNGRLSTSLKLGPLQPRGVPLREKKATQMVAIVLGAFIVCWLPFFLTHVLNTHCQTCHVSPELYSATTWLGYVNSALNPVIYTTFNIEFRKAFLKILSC
- measurement.notes: [N-Methyl-3H]Spiroperidol binding to cloned human dopamine D3 receptors (Protocol 1)
- experimental.parameters: the 13th table, unit inferred; read-out: D3Ki
measured.property: Ki (nM)
Field: numeric (nM). Do not append units.

Query: Output Ki of "O=C(NCCCCN1CCCN(c2csc3cc(C(F)(F)F)ccc23)CC1)c1cccc(C(F)(F)F)c1"
Reply: 230

Query: For the compound "Cc1ccccc1C(=O)NCCCCN1CCCN(c2csc3cc(F)ccc23)CC1" , give its measured Ki value.
Reply: 3.8

====

# pKi per entry
- experimental.system: cloned human dopamine D3 receptors (Homo sapiens, UniProt P35462)
- Construct: expressed in transfected cells; membrane homogenate
- measurement.notes: [N-Methyl-3H]Spiroperidol binding to cloned human dopamine D3 receptors (Protocol 1)
- experimental.parameters: the 21st table; read-out: D3 Ki
Hey, just a heads up that pKi is the negative log base 10 of the concentration in molar.

Query: Look up and state reported pKi for C[C@@H]1CN(c2csc3cc(F)ccc23)C[C@H](C)N1CCCCNC(=O)c1cc2ccccc2n1C [compound 826961]
Reply: 7.29

Query: Return pKi for the following molecule: COc1ccc(C(=O)NCCCCN2[C@H](C)CN(c3csc4cc(C(F)(F)F)ccc34)C[C@@H]2C)cc1OC [compound 826930]
Reply: 7.13

Query: Answer with reported pKi of C[C@@H]1CN(c2csc3cc(F)ccc23)C[C@H](C)N1CCCCNC(=O)c1c[nH]c2ccccc12 [compound 826962]
Reply: 7.10

Query: Please report the measured pKi for C[C@@H]1CN(c2csc3cc(C(F)(F)F)ccc23)C[C@H](C)N1CCCCNC(=O)c1ccc(F)cc1 [compound 826929]
Reply: 6.66

Could you now look at the following molecule, please?
Query: Item C[C@@H]1CN(c2csc3cc(C(F)(F)F)ccc23)C[C@H](C)N1CCCCNC(=O)c1cc2ccccc2s1 [compound 827045] : provide pKi
Reply: 7.01

Ref: patent US7550469B2
